Origin of values: patent US20260132129A1

target: PI3Kα H1047R (T47D cells) (Homo sapiens, UniProt P42336, H1047R); construct: endogenous in cells; host or cells: T47D cells; assay: PI3Kα cellular assay: pAKT HTRF in T47D cells after EGF stimulation; type: cell-based; conditions: T47D cells (PI3Kα H1047R), pAKT S473 HTRF, EGF stimulation
Sequence (P42336 whole entry H1047R): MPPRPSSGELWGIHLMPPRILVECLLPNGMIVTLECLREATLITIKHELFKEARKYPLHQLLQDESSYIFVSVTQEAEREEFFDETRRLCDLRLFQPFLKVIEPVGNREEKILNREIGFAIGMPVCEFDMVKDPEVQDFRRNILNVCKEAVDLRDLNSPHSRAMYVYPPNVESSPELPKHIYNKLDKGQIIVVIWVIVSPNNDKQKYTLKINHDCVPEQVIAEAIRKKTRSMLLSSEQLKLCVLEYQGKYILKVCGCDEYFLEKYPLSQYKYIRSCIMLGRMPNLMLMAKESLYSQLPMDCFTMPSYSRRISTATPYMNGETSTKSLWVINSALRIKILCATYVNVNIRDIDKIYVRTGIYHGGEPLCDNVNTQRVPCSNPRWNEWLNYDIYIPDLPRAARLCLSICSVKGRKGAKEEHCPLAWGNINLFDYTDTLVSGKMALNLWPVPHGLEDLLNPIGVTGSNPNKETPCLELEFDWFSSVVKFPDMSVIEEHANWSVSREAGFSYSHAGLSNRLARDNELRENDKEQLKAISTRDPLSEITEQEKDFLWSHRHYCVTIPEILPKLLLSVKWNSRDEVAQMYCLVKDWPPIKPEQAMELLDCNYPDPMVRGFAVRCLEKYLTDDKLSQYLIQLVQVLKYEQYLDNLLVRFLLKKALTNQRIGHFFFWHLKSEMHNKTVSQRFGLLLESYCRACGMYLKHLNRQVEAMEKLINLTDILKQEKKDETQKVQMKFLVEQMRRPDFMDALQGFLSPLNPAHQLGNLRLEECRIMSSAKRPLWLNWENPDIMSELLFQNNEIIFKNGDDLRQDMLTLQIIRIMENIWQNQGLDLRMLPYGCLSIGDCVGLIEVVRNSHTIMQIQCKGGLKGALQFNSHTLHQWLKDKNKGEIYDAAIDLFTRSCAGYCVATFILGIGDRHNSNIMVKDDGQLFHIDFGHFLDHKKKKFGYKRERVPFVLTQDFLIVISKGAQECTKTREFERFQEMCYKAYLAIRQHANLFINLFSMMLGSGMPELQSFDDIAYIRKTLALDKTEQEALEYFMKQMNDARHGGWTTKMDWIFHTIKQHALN
Sequence (P27986 whole entry partner): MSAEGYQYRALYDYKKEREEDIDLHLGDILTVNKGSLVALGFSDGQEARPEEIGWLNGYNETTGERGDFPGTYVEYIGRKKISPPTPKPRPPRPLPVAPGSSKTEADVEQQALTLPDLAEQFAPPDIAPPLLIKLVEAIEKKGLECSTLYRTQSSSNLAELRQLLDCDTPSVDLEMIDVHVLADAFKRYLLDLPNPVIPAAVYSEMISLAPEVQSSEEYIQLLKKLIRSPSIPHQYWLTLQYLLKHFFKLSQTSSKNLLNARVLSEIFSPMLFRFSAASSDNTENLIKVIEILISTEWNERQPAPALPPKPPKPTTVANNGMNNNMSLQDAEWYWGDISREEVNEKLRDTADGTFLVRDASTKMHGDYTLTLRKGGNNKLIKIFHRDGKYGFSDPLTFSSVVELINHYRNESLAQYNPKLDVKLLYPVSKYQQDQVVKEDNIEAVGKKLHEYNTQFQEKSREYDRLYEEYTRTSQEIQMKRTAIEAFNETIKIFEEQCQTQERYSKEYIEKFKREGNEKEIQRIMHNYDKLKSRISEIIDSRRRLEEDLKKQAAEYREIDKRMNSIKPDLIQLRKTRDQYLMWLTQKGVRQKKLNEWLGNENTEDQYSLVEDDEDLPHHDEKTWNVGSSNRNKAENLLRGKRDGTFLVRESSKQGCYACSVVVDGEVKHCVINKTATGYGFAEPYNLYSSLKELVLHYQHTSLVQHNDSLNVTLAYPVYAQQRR
pIC50: −log10 of the molar value.
Entries annotated with measured pIC50

Before answering, review these 5 worked examples.
Asked: State its pIC50 on PI3Kα H1047R (T47D cells) (Homo sapiens, UniProt P42336, H1047R): `Cc1cc([C@@H](C)Nc2ccccc2C(=O)O)c2nc(-c3ccc4c(c3)COC4)cc(=O)n2c1`
Given back: > 7.00

Asked: Then what about the compound Cc1cc(C(C)Nc2ccccc2S(N)(=O)=O)c2nc(-c3ccnc(C4CC4)c3)c(C)c(=O)n2c1 (centres unmarked) ?
Given back: > 7.00

Asked: Then what about the compound `CNC(=O)C#Cc1ccc(-c2nc3c([C@@H](C)Nc4ccccc4C(=O)O)cc(C)cn3c(=O)c2C)cc1F` ?
Given back: > 7.00

Asked: Then what about the compound `Cc1cc([C@H](C)Nc2ccccc2C(=O)O)c2nc(-c3ccc4c(c3)c(C)cn4C)cc(=O)n2c1` ?
Given back: > 7.00

Asked: Then what about the compound Cc1cc(C(C)Nc2ccccc2C(=O)O)c2nc(-n3cnc4cc(O)ccc43)cc(=O)n2c1 (centres unmarked) ?
Given back: 5.70 to 6.30

Turning now to a further record.
Asked: State its pIC50 on PI3Kα H1047R (T47D cells) (Homo sapiens, UniProt P42336, H1047R): Cc1cc(C(C)Nc2ccccc2C(N)=O)c2nc(-c3ccnc(C4CC4)c3)c(C)c(=O)n2c1 (centres unmarked) [Compound 1063]
Given back: 6.30 to 7.00

###

target: PI3Kα H1047R (T47D cells) (Homo sapiens, UniProt P42336, H1047R); construct: endogenous in cells; host or cells: T47D cells; test: PI3Kα cellular assay: pAKT HTRF in T47D cells after EGF stimulation; format: cell-based; conditions: selectivity of T47D (H1047R) over SKBR3 (WT) pAKT IC50
Measured Metric: T47D pAKT S473 HTRF IC50 (H1047R): T47D (H1047R) selectivity over SKBR3 (WT)

Asked: For the molecule shown here, Cc1cc(C(C)N(C)c2ccccc2S(N)(=O)=O)c2nc(N3Cc4ccccc4C3)cc(=O)n2c1 (stereo not shown) [Compound 836] , give the reported T47D pAKT S473 HTRF IC50 (H1047R): T47D (H1047R) selectivity over SKBR3 (WT).
Given back: C (C denotes ≤5-fold)

Asked: Then what about the molecule C=CC(=O)Nc1ccc(C(=O)O)c(NC(C)c2cc(C)cn3c(=O)c(C)c(N4Cc5ccccc5C4)nc23)c1 (stereo not shown) [Compound 1039] ?
Given back: C (C denotes ≤5-fold)

###

Entries annotated with measured IC50
molecular target: PI3Kα H1047R (T47D cells) (Homo sapiens, UniProt P42336, H1047R); construct: endogenous in cells; host or cells: T47D cells; test: PI3Kα cellular assay: pAKT HTRF in T47D cells after EGF stimulation; assay type: cell-based; conditions: T47D cells (PI3Kα H1047R), pAKT S473 HTRF, EGF stimulation

Asked: For the compound shown here, Cc1cc([C@@H](C)Nc2ccccc2C(=O)O)c2nc(-c3cnc(C)c(Cl)c3)c(C)c(=O)n2c1 (single isomer, unassigned) [Compound 951] , give the reported IC50.
Given back: < 100 nM

Asked: Then what about the compound `CNC(=O)C#Cc1ccc(-c2nc3c([C@H](C)Nc4ccccc4C(=O)O)cc(C)cn3c(=O)c2C)cc1F` ?
Given back: > 2000 nM

Asked: Then what about the compound `CCc1c(-c2ccc(F)cc2)nc2c([C@H](C)Nc3ccccc3C(=O)O)cc(C)cn2c1=O` ?
Given back: 500 to 2000 nM

Asked: Then what about the compound CCc1c(-c2ccc3c(c2)c(C)cn3C)nc2c(C(C)Nc3ccccc3C(=O)O)cc(C)cn2c1=O (stereo not drawn) ?
Given back: 100 to 500 nM

Asked: Then what about the compound `Cc1cc([C@@H](C)Nc2ccccc2C(=O)O)c2nc(-c3ccc4c(c(N)nn4C)c3C)cc(=O)n2c1` ?
Given back: 500 to 2000 nM

Further cases:
Asked: For the compound shown here, `Cc1cc([C@H](C)Nc2ccccc2C(=O)O)c2nc([C@@H]3CCCOC3)c(C)c(=O)n2c1` , give the reported IC50.
Given back: 500 to 2000 nM

Asked: Then what about the compound `C[C@@H]1C[C@H](C)CN(c2cc(=O)n3cc(C(F)(F)F)cc([C@@H](C)Nc4ccccc4C(=O)O)c3n2)C1` ?
Given back: < 100 nM

###

target: PI3Kα H1047R (T47D cells) (Homo sapiens, UniProt P42336, H1047R); construct: endogenous in cells; host or cells: T47D cells; assay: PI3Kα cellular assay: pAKT HTRF in T47D cells after EGF stimulation; type: cell-based; settings: selectivity T47D (H1047R) over SKBR3 (WT), pAKT HTRF
Measured Metric: T47D pAKT S473 HTRF IC50 (H1047R): T47D (H1047R) selectivity over SKBR3 (WT)

Before answering, review these 5 worked examples.
Asked: For the compound shown here, `Cc1cc([C@H](C)Nc2ccccc2C(=O)O)c2nc(N3CCS(=O)(=O)CC3)cc(=O)n2c1` , give the reported T47D pAKT S473 HTRF IC50 (H1047R): T47D (H1047R) selectivity over SKBR3 (WT).
Given back: C (C denotes ≤5-fold)

Asked: Then what about the compound Cc1cc(C(C)Nc2ccccc2C(=O)O)c2nc(-c3cnc4c(c3)c(C)c(C)n4C)c(C)c(=O)n2c1 (stereo not drawn) ?
Given back: A (A denotes >20-fold)

Asked: Then what about the compound Cc1cc(C(C)Nc2ccccc2C(=O)O)c2nc(OC3CCCOC3)c(C)c(=O)n2c1 (stereo not drawn) ?
Given back: A (A denotes >20-fold)

Asked: Then what about the compound Cc1cc(C(C)Nc2ccccc2C(=O)O)c2nc(N3CCC4(CC3)CC(=O)N4)cc(=O)n2c1 (stereo not drawn) ?
Given back: C (C denotes ≤5-fold)

Asked: Then what about the compound `Cc1cc([C@@H](C)Nc2ccccc2S(N)(=O)=O)c2nc([C@H]3CCCN(CC(F)F)C3)c(C)c(=O)n2c1` ?
Given back: C (C denotes ≤5-fold)

Further cases:
Asked: For the compound shown here, `Cc1cc([C@@H](C)Nc2ccccc2-c2ccnnc2)c2nc(-c3cnc(C)c(Cl)c3)c(C)c(=O)n2c1` , give the reported T47D pAKT S473 HTRF IC50 (H1047R): T47D (H1047R) selectivity over SKBR3 (WT).
Given back: C (C denotes ≤5-fold)

Asked: Then what about the compound Cc1cc([C@@H](C)Nc2ccccc2C(=O)O)c2nc(OC3CCOCC3)c(C)c(=O)n2c1 (single isomer, unassigned) ?
Given back: C (C denotes ≤5-fold)

Asked: Then what about the compound Cc1cc(C(C)Nc2cc(F)ccc2C(=O)O)c2nc(N3CCOCC3)cc(=O)n2c1 (stereo not drawn) ?
Given back: C (C denotes ≤5-fold)

###

target: PI3Kα H1047R (T47D cells) (Homo sapiens, UniProt P42336, H1047R); construct: endogenous in cells; host or cells: T47D cells; assay: PI3Kα cellular assay: pAKT HTRF in T47D cells after EGF stimulation; assay type: cell-based; conditions: selectivity T47D (H1047R) over SKBR3 (WT), pAKT HTRF
Measured Metric: T47D pAKT S473 HTRF IC50 (H1047R): T47D (H1047R) selectivity over SKBR3 (WT)

Before answering, review these 5 worked examples.
Asked: For the molecule shown here, COc1cc(NC(C)c2cc(C)cn3c(=O)cc(N4CCOCC4)nc23)c(C(=O)O)cc1OC (centres unmarked) [Compound 325] , give the reported T47D pAKT S473 HTRF IC50 (H1047R): T47D (H1047R) selectivity over SKBR3 (WT).
Given back: C (C denotes ≤5-fold)

Asked: Then what about the molecule Cc1cc(C(C)Nc2ccccc2C(=O)O)c2nc(-c3cc(C)ncn3)c(C)c(=O)n2c1 (centres unmarked) [Compound 1203] ?
Given back: A (A denotes >20-fold)

Asked: Then what about the molecule Cc1cc([C@@H](C)Nc2ccccc2C(=O)O)c2cc([C@@H]3CCCOC3)c(C#N)c(=O)n2c1 [Compound 1361] ?
Given back: A (A denotes >20-fold)

Asked: Then what about the molecule Cc1cc([C@@H](C)Nc2ccccc2C(=O)O)c2nc(-c3cc[nH]c(=O)c3)cc(=O)n2c1 [Compound 461] ?
Given back: C (C denotes ≤5-fold)

Asked: Then what about the molecule Cc1cc(C(C)Nc2cccc(F)c2C(=O)O)c2nc(N3CCOCC3)cc(=O)n2c1 (centres unmarked) [Compound 287] ?
Given back: C (C denotes ≤5-fold)

Turning now to a further record.
Asked: For the molecule shown here, Cc1cc(C(C)Nc2ccccc2C(=O)O)c2nc(-c3ccc(C(C)C)nc3)c(C)c(=O)n2c1 (centres unmarked) [Compound 1178] , give the reported T47D pAKT S473 HTRF IC50 (H1047R): T47D (H1047R) selectivity over SKBR3 (WT).
Given back: A (A denotes >20-fold)
